Measured target: GTPγS-loaded, prenylated KRAS^G12V (Homo sapiens, UniProt P01116, G12V)
Construct: made in house; host or cells: insect cells (Sf9, Sf21 or Tn5), baculovirus
Sequence (P01116 1-188 isoform P01116-2 G12V): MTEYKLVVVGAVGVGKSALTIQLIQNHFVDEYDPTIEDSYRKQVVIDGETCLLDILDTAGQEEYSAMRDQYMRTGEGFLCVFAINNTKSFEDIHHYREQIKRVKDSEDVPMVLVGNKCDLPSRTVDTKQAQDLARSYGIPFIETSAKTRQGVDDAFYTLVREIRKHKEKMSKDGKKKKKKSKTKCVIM
Protocol details: Coupled KRAS-BRAF-MEK assay (BRAF activation by KRAS, AlphaScreen pMEK readout)
Type: biochemical
Run parameters: GTPγS-loaded full-length prenylated KRAS^G12V in PS; geomean; read-out: Coupled assay IC50
The entries below are paired with their reported IC50.
Just the number please, in µM, no unit attached.

- Compound: "Clc1ccc(C[C@@H]2C[C@@H](NCc3c[nH]c4ccccc34)CCN2)cc1 [Compound 3]"
  Measured target: "GTPγS-loaded, prenylated KRAS^G12V (Homo sapiens, UniProt P01116, G12V)"
  IC50 / µM: 1.2
- Compound: "O=C(N[C@H]1CCN(Cc2ccc(O)nc2)C1)c1c[nH]c2ccc(Cl)cc12 [Compound 4]"
  Measured target: "GTPγS-loaded, prenylated KRAS^G12V (Homo sapiens, UniProt P01116, G12V)"
  IC50 / µM: 49
- Compound: "CC(C)NCC(O)COc1cccc2cc[nH]c12 (stereo not shown) [Compound 1]"
  Measured target: "GTPγS-loaded, prenylated KRAS^G12V (Homo sapiens, UniProt P01116, G12V)"
  IC50 / µM: 87

Data request: Look up and report measured IC50 for this entry: O=C(N[C@H]1CCN[C@H](Cc2ccc(Cl)cc2)C1)c1c[nH]c2ccc(Br)cc12 [Compound 2]
Data returned: 0.8

====

Measured target: full length BRAF^V600E (Homo sapiens, UniProt P15056, V600E)
Construct: made in house; host or cells: insect cells (Sf9, Sf21 or Tn5), baculovirus pBlueBac4.5
Sequence (P15056 whole entry V600E): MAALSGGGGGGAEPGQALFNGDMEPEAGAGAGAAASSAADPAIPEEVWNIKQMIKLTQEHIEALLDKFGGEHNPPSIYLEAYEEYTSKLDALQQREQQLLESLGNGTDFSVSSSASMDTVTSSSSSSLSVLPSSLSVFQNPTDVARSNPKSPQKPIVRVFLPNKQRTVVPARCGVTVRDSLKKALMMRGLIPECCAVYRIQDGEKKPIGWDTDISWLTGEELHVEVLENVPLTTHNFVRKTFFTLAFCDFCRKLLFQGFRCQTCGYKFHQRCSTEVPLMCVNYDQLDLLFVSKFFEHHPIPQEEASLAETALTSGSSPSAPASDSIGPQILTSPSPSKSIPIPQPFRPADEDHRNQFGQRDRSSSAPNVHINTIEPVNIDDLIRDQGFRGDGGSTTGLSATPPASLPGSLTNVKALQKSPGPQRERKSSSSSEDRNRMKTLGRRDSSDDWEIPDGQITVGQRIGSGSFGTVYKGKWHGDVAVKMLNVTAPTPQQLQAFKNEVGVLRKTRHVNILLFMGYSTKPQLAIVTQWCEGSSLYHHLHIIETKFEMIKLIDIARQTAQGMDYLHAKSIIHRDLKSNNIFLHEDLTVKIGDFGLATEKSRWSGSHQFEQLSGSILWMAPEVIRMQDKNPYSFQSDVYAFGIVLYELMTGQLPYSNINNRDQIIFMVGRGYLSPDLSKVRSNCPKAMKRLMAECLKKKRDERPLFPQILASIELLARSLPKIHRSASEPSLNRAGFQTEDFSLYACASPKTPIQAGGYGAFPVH
Protocol details: BRAF^V600E counter-screen (coupled assay lacking KRAS)
Assay type: biochemical
Run parameters: BRAF^V600E, no KRAS; geomean; read-out: Counter-screen IC50
Reported property: pIC50
// returns pIC50 (minus log10 of molar concentration), number only

- Compound: "O=C(Nc1ccc2nc(Cc3c[nH]c4ccccc34)[nH]c2c1)C1CCCN1 (centres unmarked) [Compound 6, reference compound]"
  Measured target: "full length BRAF^V600E (Homo sapiens, UniProt P15056, V600E)"
  Test value: 3.87
- Compound: "O=C(N[C@H]1CCN[C@H](Cc2ccc(Cl)cc2)C1)c1c[nH]c2ccc(Br)cc12"
  Measured target: "full length BRAF^V600E (Homo sapiens, UniProt P15056, V600E)"
  Test value: 4.07

Data request: Look up and report measured pIC50 for this entry: O=C(N[C@H]1CCN(Cc2ccc(O)nc2)C1)c1c[nH]c2ccc(Cl)cc12
Data returned: 3.94

====

Measured target: GTPγS-loaded, prenylated KRAS^G12V (Homo sapiens, UniProt P01116, G12V)
Construct: made in house; host or cells: insect cells (Sf9, Sf21 or Tn5), baculovirus
Protocol details: Coupled KRAS-BRAF-MEK assay (BRAF activation by KRAS, AlphaScreen pMEK readout)
Type: biochemical
Reported property: pIC50
// returns pIC50 (minus log10 of molar concentration), number only

Data request: Please look at Cc1[nH]c2cc(Cl)cc(Cl)c2c1CCN [Compound 5, reference compound] and tell me its recorded pIC50 on GTPγS-loaded, prenylated KRAS^G12V (Homo sapiens, UniProt P01116, G12V).
Data returned: 5.15

====

Measured target: prenylated KRAS^G12V loaded with GTPγS (Homo sapiens, UniProt P01116, G12V)
Construct: Avi-tag-(Gly)8 –KRAS^G12V (2–188) was cloned into the pFastBac1 vector; made in house; host or cells: Tn5 insect cells, co-infected with BirA virus
Protocol details: Biolayer interferometry (BLI) binding to full-length prenylated KRAS in PS
Reported property: pKd
// returns pKd (minus log10 of molar concentration), number only

Data request: Look up and report measured pKd for this entry: Cc1[nH]c2cc(Cl)cc(Cl)c2c1CCN [Compound 5, reference compound]
Data returned: 4.47

====

Measured target: non-prenylated GDP-KRAS^G12V (Homo sapiens, UniProt P01116, G12V)
Construct: HSQC experiments were run with ^15N-labeled and GDP-loaded K-RAS^G12V (1–169)
Sequence (P01116 1-169 isoform P01116-2 G12V): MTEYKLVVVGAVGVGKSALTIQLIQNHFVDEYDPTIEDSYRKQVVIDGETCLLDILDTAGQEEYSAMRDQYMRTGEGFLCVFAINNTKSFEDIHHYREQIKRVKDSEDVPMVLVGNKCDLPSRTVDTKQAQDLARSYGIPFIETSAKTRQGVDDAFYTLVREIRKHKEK
Protocol details: HSQC NMR binding / titration
Run parameters: non-processed GDP-loaded KRAS^G12V (1–169) in aqueous buffer, no PS; estimated from titration
Reported property: pKd
// returns pKd (minus log10 of molar concentration), number only

Data request: Look up and report measured pKd for this entry: O=C(N[C@H]1CCN[C@H](Cc2ccc(Cl)cc2)C1)c1c[nH]c2ccc(Br)cc12
Data returned: 3.16

====

Measured target: prenylated KRAS^G12V loaded with GTPγS (Homo sapiens, UniProt P01116, G12V)
Construct: Avi-tag-(Gly)8 –KRAS^G12V (2–188) was cloned into the pFastBac1 vector; made in house; host or cells: Tn5 insect cells, co-infected with BirA virus
Protocol details: Biolayer interferometry (BLI) binding to full-length prenylated KRAS in PS
Run parameters: full-length prenylated GTPγS-loaded KRAS^G12V, PS liposomes; read-out: Kd BLI
The entries below are paired with their reported Kd.
Just the number please, in nM, no unit attached.

- Given smiles: "O=C(N[C@H]1CCN[C@H](Cc2ccc(Cl)cc2)C1)c1c[nH]c2ccc(Br)cc12"
  Measured target: "prenylated KRAS^G12V loaded with GTPγS (Homo sapiens, UniProt P01116, G12V)"
  Kd / nM: 800

Data request: Look up and report measured Kd for this entry: Clc1ccc(C[C@@H]2C[C@@H](NCc3c[nH]c4ccccc34)CCN2)cc1
Data returned: 2600
